FYI, the data here is from ChEMBL document CHEMBL1142013.

Biological target: Polyunsaturated fatty acid lipoxygenase ALOX15 (Oryctolagus cuniculus)
Experiment: Inhibitory concentration against rabbit reticulocyte 15-lipoxygenase with substrate arachidonic acid
Hi there, I'd appreciate the recorded pIC50 for every entry that follows.
One number for each entry, as −log10 of the molar value.

Example entries begin here.
[[record]]
line_notation = "O=C(NC1CCCCC1)c1ccc(S(=O)(=O)NCCc2c(-c3cc4ccccc4o3)[nH]c3ccccc23)cc1"
system_under_test = "Polyunsaturated fatty acid lipoxygenase ALOX15 (Oryctolagus cuniculus)"
quantity_name = "pIC50"
numeric_result = 7.47

[[record]]
line_notation = "CCCCCc1ccc(S(=O)(=O)NCCc2c(-c3ccc4oc5ccccc5c4c3)[nH]c3ccccc23)cc1"
system_under_test = "Polyunsaturated fatty acid lipoxygenase ALOX15 (Oryctolagus cuniculus)"
quantity_name = "pIC50"
numeric_result = 7.15

[[record]]
line_notation = "COc1ccc(NC(=O)c2ccc(S(=O)(=O)NCCc3c(-c4cc5ccccc5o4)[nH]c4ccccc34)cc2)cc1"
system_under_test = "Polyunsaturated fatty acid lipoxygenase ALOX15 (Oryctolagus cuniculus)"
quantity_name = "pIC50"
numeric_result = 7.59

[[record]]
line_notation = "COc1ccc(-c2ccc(S(=O)(=O)NCCc3c[nH]c4ccccc34)cc2)cc1"
system_under_test = "Polyunsaturated fatty acid lipoxygenase ALOX15 (Oryctolagus cuniculus)"
quantity_name = "pIC50"
numeric_result = 5.96

[[record]]
line_notation = "Cc1ccc(S(=O)(=O)NCCc2c(-c3cc4ccccc4o3)[nH]c3ccccc23)cc1"
system_under_test = "Polyunsaturated fatty acid lipoxygenase ALOX15 (Oryctolagus cuniculus)"
quantity_name = "pIC50"
numeric_result = 7.11


Need pIC50 for each of these compounds.
1. CCCCCc1ccc(S(=O)(=O)NCCc2c(-c3ccccc3)[nH]c3ccccc23)cc1
2. O=S(=O)(NCCc1c(-c2cc3ccccc3o2)[nH]c2ccccc12)c1ccc(Br)cc1
3. CCCCCc1ccc(S(=O)(=O)NCCc2c(-c3ccc(C(F)(F)F)cc3)[nH]c3ccccc23)cc1
4. CN(C)CCN(C)C(=O)c1ccc(S(=O)(=O)NCCc2c(-c3cc4ccccc4o3)[nH]c3ccccc23)cc1

Response:
1: 6.85; 2: 6.79; 3: 6.88; 4: 6.42

###

Target: Polyunsaturated fatty acid lipoxygenase ALOX15 (Oryctolagus cuniculus, UniProt P12530)
Assay: Inhibitory concentration against rabbit reticulocyte 15-lipoxygenase with substrate arachidonic acid
Quantity name: pIC50
Give bare numbers, as −log10 of the molar value.

[[record]]
line_notation = "CCCCCc1ccc(S(=O)(=O)NCCc2c(-c3cc(OC)ccc3OC)[nH]c3ccccc23)cc1"
system_under_test = "Polyunsaturated fatty acid lipoxygenase ALOX15 (Oryctolagus cuniculus, UniProt P12530)"
quantity_name = "pIC50"
numeric_result = 6.88


Hi team, please reply with pIC50 for each item in this list.
1. Cc1cccc(-c2ccc(S(=O)(=O)NCCc3c[nH]c4ccccc34)cc2)c1
2. CCCCCc1ccc(S(=O)(=O)NCCc2c(-c3ccc(Cl)cc3)[nH]c3ccccc23)cc1

Response:
6.49
6.92

Items follow; give pIC50 for each.
1. CCCCCc1ccc(S(=O)(=O)NCCc2c[nH]c3ccccc23)cc1
2. CN(CCO)C(=O)c1ccc(S(=O)(=O)NCCc2c(-c3cc4ccccc4o3)[nH]c3ccccc23)cc1

Response:
5.99
5.39

###

Molecular target: Polyunsaturated fatty acid lipoxygenase ALOX15 (Oryctolagus cuniculus)
Sequence (P12530 whole entry): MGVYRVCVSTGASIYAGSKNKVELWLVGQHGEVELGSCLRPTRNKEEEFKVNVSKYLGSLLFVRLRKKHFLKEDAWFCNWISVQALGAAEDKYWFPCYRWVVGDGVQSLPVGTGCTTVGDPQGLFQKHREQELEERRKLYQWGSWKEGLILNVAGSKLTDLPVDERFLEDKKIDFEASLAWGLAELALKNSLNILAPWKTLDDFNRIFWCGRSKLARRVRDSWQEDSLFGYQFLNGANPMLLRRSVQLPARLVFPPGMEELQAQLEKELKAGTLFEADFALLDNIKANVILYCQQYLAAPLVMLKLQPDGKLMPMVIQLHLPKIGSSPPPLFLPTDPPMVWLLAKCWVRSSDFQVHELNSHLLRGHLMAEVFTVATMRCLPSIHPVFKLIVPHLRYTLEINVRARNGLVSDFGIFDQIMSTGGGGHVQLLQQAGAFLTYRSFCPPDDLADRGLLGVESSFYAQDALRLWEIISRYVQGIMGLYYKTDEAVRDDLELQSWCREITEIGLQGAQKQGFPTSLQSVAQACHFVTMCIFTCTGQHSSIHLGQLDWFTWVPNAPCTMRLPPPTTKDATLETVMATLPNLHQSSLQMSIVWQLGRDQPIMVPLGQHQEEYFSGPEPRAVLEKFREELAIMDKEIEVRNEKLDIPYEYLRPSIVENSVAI
Assay: Inhibitory concentration against rabbit reticulocyte 15-lipoxygenase with substrate arachidonic acid
Define the label as t when IC50 is strictly less than 500 nM and as f in all remaining cases.

A selection of reference data follows.
[[record]]
line_notation = "CCCCCc1ccc(S(=O)(=O)NCCc2c[nH]c3c(C)cccc23)cc1"
label = "f"

[[record]]
line_notation = "CCc1ccc(-c2ccc(S(=O)(=O)NCCc3c[nH]c4ccccc34)cc2)cc1"
label = "t"

[[record]]
line_notation = "O=S(=O)(NCCCc1c(-c2cc3ccccc3o2)[nH]c2ccccc12)c1ccc(-c2ccccc2)cc1"
label = "t"

[[record]]
line_notation = "COc1ccc(-c2[nH]c3ccccc3c2CCNS(=O)(=O)c2ccc(C)cc2)cc1"
label = "f"

[[record]]
line_notation = "Cc1ccccc1-c1ccc(S(=O)(=O)NCCc2c[nH]c3ccccc23)cc1"
label = "t"

[[record]]
line_notation = "CCCCCc1ccc(S(=O)(=O)NCCc2c[nH]c3cc(C(=O)OC)ccc23)cc1"
label = "t"

[[record]]
line_notation = "CC(C)(C)c1ccc(-c2ccc(S(=O)(=O)NCCc3c[nH]c4ccccc34)cc2)cc1"
label = "t"

[[record]]
line_notation = "Cc1ccc(-c2ccc(S(=O)(=O)NCCc3c[nH]c4ccccc34)cc2)cc1"
label = "t"


Query: # TODO verify IC50 < 500 nM strictly for this compound: CC(C)Cc1ccc(-c2ccc(S(=O)(=O)NCCc3c[nH]c4ccccc34)cc2)cc1
Response: t

Query: Hello, is IC50 of the following compound strictly smaller than 500 nM? CCCCCc1ccc(S(=O)(=O)NCCc2c[nH]c3ccc(F)cc23)cc1
Response: f

###

Kindly state IC50 for each of the entries shown.
Molecular target: Polyunsaturated fatty acid lipoxygenase ALOX15 (Oryctolagus cuniculus)
Sequence (P12530 whole entry): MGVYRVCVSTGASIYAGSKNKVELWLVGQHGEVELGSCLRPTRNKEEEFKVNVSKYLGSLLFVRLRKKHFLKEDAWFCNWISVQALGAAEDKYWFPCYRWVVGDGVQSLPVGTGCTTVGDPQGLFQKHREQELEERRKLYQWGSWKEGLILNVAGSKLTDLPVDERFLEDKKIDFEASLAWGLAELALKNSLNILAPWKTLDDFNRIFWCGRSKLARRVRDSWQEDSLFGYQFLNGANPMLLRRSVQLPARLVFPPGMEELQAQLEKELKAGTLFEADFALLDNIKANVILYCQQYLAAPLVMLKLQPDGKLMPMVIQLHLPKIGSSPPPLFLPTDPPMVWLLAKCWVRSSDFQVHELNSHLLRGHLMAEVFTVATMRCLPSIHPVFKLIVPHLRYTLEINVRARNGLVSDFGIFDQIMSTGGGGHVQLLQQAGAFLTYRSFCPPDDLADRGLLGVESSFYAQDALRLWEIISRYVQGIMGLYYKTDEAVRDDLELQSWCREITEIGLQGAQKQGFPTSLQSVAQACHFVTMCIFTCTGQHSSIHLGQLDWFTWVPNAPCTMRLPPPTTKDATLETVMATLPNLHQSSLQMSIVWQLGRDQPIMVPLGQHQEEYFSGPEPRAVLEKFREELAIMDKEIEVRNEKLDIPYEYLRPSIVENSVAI
Assay: Inhibitory concentration against isolated rabbit reticulocyte 15-lipoxygenase measured in the presence of linoleic acid
One number for each entry, in nM.

Examples with their reported IC50 follow.
[[record]]
compound = "COc1ccc(-c2[nH]c3ccccc3c2CCNS(=O)(=O)c2ccc(-c3ccccc3)cc2)cc1"
numeric_result = 27

[[record]]
compound = "CCCCCc1ccc(S(=O)(=O)NC(C)Cc2c[nH]c3ccccc23)cc1 (centres undefined)"
numeric_result = 1600

[[record]]
compound = "CCCCCc1ccc(S(=O)(=O)NCCc2c(-c3ccc(OC)cc3)[nH]c3ccccc23)cc1"
numeric_result = 37

[[record]]
compound = "CCCCc1ccc(S(=O)(=O)NCCc2c(-c3ccc(OC)cc3)[nH]c3ccccc23)cc1"
numeric_result = 110

[[record]]
compound = "CCCCCc1ccc(S(=O)(=O)NCCc2c(-c3ccc(C(F)(F)F)cc3)[nH]c3ccccc23)cc1"
numeric_result = 11

[[record]]
compound = "CC1=C(CC/C(C)=C/CC/C(C)=C/Cc2cc(O)ccc2O)C(C)(C)CCC1"
numeric_result = 300

[[record]]
compound = "Cc1ccccc1-c1ccc(S(=O)(=O)NCCc2c[nH]c3ccccc23)cc1"
numeric_result = 920

[[record]]
compound = "CCCCCc1ccc(S(=O)(=O)NCCc2c(-c3cccc(C)c3)[nH]c3ccccc23)cc1"
numeric_result = 25


Let us move to another entry and its IC50.
Query: Name the recorded IC50 of the compound listed here: CCCCCc1ccc(S(=O)(=O)NCCc2c(-c3ccc4oc5ccccc5c4c3)[nH]c3ccccc23)cc1
Response: 10
